# system tested: hCaV2.2 (Homo sapiens, UniProt Q00975)
# Construct: expressed in transfected cells; plasmids pCIN5-hCaV2.2, pCIH-hCaV β3, pCIP-α2δ1
# Sequence (Q00975 whole entry): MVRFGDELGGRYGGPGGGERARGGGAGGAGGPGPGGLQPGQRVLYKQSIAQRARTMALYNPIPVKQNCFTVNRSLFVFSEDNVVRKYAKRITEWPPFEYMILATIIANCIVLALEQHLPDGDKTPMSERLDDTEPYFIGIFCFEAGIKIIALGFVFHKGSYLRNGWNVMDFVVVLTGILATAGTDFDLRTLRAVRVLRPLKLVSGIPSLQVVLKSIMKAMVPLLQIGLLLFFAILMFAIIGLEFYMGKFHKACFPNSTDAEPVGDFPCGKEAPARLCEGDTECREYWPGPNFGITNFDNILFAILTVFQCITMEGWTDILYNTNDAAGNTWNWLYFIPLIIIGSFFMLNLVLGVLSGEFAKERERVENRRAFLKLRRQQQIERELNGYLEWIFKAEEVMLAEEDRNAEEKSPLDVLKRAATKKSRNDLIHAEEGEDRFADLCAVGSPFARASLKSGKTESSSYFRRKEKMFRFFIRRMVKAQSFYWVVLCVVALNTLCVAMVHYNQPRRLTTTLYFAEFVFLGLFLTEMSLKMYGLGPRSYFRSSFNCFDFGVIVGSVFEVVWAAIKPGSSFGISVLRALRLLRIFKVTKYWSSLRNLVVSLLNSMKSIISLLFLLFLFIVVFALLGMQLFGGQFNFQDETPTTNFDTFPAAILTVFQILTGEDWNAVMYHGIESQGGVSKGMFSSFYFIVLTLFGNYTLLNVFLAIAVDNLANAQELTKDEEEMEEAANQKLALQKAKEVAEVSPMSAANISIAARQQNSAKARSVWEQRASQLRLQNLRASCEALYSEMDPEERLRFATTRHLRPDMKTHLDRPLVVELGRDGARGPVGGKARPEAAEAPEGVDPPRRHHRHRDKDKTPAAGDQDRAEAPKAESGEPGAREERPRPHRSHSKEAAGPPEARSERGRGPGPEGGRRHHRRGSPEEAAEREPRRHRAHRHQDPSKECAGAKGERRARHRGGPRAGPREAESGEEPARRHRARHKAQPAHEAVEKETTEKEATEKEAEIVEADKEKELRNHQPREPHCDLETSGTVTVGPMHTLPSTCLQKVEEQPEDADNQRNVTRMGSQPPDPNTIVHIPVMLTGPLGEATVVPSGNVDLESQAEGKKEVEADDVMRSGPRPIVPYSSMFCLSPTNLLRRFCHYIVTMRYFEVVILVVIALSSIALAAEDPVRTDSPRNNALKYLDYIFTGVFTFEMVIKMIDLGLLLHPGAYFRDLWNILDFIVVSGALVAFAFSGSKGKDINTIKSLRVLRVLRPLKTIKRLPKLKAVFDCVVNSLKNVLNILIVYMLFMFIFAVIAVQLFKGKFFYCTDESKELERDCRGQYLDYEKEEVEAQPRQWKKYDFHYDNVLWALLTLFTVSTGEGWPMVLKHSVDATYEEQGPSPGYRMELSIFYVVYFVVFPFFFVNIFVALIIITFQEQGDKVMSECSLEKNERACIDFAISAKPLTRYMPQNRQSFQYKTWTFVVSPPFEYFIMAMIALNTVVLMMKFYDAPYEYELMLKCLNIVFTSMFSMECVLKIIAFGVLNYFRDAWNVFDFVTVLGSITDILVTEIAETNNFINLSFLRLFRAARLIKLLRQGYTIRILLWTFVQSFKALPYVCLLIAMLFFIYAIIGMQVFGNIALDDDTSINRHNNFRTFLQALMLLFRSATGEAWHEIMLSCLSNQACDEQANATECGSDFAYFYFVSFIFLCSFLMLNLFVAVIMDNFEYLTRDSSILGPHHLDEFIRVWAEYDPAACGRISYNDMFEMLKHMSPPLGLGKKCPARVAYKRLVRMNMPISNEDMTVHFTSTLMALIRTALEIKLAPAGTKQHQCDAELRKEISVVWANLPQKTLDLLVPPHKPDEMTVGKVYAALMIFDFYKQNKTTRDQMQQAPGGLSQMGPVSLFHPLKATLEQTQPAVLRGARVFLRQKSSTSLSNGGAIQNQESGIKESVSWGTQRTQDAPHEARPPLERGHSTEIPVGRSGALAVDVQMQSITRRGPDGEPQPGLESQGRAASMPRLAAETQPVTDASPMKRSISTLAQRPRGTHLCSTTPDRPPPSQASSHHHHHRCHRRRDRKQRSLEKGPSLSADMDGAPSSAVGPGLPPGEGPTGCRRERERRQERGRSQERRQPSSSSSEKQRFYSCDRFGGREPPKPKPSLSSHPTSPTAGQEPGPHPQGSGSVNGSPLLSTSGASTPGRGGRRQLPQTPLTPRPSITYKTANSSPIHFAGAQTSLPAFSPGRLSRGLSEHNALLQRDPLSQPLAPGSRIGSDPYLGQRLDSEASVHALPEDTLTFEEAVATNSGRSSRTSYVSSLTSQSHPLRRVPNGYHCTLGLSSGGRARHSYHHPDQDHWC
# Sequence (P54284 whole entry partner): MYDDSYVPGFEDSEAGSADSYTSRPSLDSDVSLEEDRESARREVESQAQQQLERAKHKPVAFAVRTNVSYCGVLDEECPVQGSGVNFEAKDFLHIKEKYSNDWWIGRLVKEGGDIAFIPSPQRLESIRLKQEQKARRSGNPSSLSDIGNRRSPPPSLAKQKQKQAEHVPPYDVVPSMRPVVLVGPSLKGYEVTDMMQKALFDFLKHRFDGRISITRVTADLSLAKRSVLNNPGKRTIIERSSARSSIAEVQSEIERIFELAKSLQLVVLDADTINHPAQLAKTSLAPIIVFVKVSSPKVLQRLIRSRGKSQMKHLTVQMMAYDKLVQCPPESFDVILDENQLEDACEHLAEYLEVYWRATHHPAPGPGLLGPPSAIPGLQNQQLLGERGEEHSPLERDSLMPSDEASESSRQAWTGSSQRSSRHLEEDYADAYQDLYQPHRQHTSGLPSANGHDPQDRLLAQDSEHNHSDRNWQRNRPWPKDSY
# Sequence (P54289 25-946 partner limits assumed): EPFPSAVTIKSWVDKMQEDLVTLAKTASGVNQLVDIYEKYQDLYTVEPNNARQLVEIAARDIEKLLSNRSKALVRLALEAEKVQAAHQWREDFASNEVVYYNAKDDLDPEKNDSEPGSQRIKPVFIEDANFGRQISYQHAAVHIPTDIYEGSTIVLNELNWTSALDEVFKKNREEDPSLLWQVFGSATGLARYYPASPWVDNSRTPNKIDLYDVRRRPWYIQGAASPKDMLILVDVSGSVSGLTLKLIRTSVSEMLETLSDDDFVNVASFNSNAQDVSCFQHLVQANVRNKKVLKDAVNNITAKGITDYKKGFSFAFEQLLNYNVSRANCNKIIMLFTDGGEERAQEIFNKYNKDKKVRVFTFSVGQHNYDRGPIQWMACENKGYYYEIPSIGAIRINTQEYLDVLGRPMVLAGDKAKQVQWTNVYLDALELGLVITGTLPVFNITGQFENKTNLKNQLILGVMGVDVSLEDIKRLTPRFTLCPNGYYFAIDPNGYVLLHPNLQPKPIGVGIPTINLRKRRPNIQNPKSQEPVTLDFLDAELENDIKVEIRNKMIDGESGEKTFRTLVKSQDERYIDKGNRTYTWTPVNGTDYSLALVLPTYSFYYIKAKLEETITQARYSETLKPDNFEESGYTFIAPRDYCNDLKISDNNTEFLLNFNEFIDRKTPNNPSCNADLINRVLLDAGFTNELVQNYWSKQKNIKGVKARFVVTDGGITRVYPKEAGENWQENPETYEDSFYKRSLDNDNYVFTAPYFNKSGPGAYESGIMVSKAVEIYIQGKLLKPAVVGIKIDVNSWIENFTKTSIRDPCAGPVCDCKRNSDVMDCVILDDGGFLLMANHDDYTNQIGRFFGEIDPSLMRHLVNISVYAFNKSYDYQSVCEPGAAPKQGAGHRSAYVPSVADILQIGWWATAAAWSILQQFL
# Sequence (P54289 947-1103 partner limits assumed): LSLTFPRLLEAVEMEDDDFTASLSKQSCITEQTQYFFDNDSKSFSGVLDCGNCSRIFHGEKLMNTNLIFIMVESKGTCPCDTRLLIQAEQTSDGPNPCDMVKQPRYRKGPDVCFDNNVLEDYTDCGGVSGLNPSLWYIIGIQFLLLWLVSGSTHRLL
# method summary: hCaV2.2 assay (IonWorks planar array electrophysiology, HEK293 stable cell line)
# Assay type: cell-based
# condition summary: mean pIC50 value (tonic pIC50), inhibition of current elicited by the 1st depolarizing pulse by 50%, HEK293 cells expressing human CaV2.2 α/β3/α2δ1
value type: IC50

I'd like to know its IC50. The molecule in question is Cc1cc(C#N)ccc1S(=O)(=O)N1CCN(C(=O)c2cnn3cc(F)cnc23)[C@@H](C)C1
≥ 31.6 µM
